Test system: human APOE RNA
measurement_notes: Activity in APOE 1549 knock-in mice, single ICV bolus, 2 weeks (Example 7)
Format: in vivo
test_conditions: single ICV bolus of 300 μg, two weeks post treatment, cortex, Table 16
Strand notation (5' to 3'): a small letter for the sugar, then the base; units joined by * are phosphorothioate-linked, units joined directly phosphodiester-linked; [ ] holds rarer units or linkages, { } end groups; capitals alone tell only the bases. e = 2'-O-(2-methoxyethyl) (MOE); [5mC] = 5-methylcytosine; d = 2'-deoxy (DNA)
test_readout: APOE RNA (% control) Cortex

substance | test_readout | measurement
1601959: 6-10-4 MOE gapmer CCGTGTCGCTGCCCCTGGCT, linkages sooooossssssssssoss (antisense e[5mC]*e[5mC]eGeTeGeTd[5mC]*dG*d[5mC]*dT*dG*d[5mC]*d[5mC]*d[5mC]*d[5mC]*dT*eGeG*e[5mC]*eT) [compound 1601959] | APOE RNA (% control) Cortex | 107
1601944: 6-10-4 MOE gapmer CTGGTCTTCTCTTATCTCCC, linkages sooooossssssssssoss (antisense e[5mC]*eTeGeGeTe[5mC]dT*dT*d[5mC]*dT*d[5mC]*dT*dT*dA*dT*d[5mC]*eTe[5mC]*e[5mC]*e[5mC]) [compound 1601944] | APOE RNA (% control) Cortex | 109
1601958: 6-10-4 MOE gapmer CTTCACATTCTAAGCTCCAA, linkages sooooossssssssssoss (antisense e[5mC]*eTeTe[5mC]eAe[5mC]dA*dT*dT*d[5mC]*dT*dA*dA*dG*d[5mC]*dT*e[5mC]e[5mC]*eA*eA) [compound 1601958] | APOE RNA (% control) Cortex | 109
Compound No. 1517891: comparator of WO 2022/066956; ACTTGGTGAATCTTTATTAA, sugar eeeeeddddddddddeeeee, linkages sooosssssssssssooss (MOE gapmer, mixed PS/PO linkages, chemistry not fully specified) [reference compound] | APOE RNA (% control) Cortex | 49
1601942: 6-10-4 MOE gapmer CCGTGTTCCATTTATGAGCT, linkages sooooossssssssssoss (antisense e[5mC]*e[5mC]eGeTeGeTdT*d[5mC]*d[5mC]*dA*dT*dT*dT*dA*dT*dG*eAeG*e[5mC]*eT) [compound 1601942] | APOE RNA (% control) Cortex | 84
1601957: 6-10-4 MOE gapmer TCCTCATTTTAAAGTTCTCC, linkages sooooossssssssssoss (antisense eT*e[5mC]e[5mC]eTe[5mC]eAdT*dT*dT*dT*dA*dA*dA*dG*dT*dT*e[5mC]eT*e[5mC]*e[5mC]) [compound 1601957] | APOE RNA (% control) Cortex | 101
1601956: 6-10-4 MOE gapmer AAGTTCTCCAATCGACGGCT, linkages sooooossssssssssoss (antisense eA*eAeGeTeTe[5mC]dT*d[5mC]*d[5mC]*dA*dA*dT*d[5mC]*dG*dA*d[5mC]*eGeG*e[5mC]*eT) [compound 1601956] | APOE RNA (% control) Cortex | 104
1601948: 6-10-4 MOE gapmer GTTCAAATTCCATCCCCCCA, linkages sooooossssssssssoss (antisense eG*eTeTe[5mC]eAeAdA*dT*dT*d[5mC]*d[5mC]*dA*dT*d[5mC]*d[5mC]*d[5mC]*e[5mC]e[5mC]*e[5mC]*eA) [compound 1601948] | APOE RNA (% control) Cortex | 112
1601943: 6-10-4 MOE gapmer GTCCTCATTTTAAAGTTCTC, linkages sooooossssssssssoss (antisense eG*eTe[5mC]e[5mC]eTe[5mC]dA*dT*dT*dT*dT*dA*dA*dA*dG*dT*eTe[5mC]*eT*e[5mC]) [compound 1601943] | APOE RNA (% control) Cortex | 115
1601949: 6-10-4 MOE gapmer CTGCAATGCATTAGAAACCT, linkages sooooossssssssssoss (antisense e[5mC]*eTeGe[5mC]eAeAdT*dG*d[5mC]*dA*dT*dT*dA*dG*dA*dA*eAe[5mC]*e[5mC]*eT) [compound 1601949] | APOE RNA (% control) Cortex | 77
Compound No. 1517853: comparator of WO 2022/066956; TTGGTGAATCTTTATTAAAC, sugar eeeeeddddddddddeeeee, linkages sooosssssssssssooss (MOE gapmer, mixed PS/PO linkages, chemistry not fully specified) [reference compound] | APOE RNA (% control) Cortex | 53
1601955: 6-10-4 MOE gapmer GCTAATTCAGTCCTCATTTT, linkages sooooossssssssssoss (antisense eG*e[5mC]eTeAeAeTdT*d[5mC]*dA*dG*dT*d[5mC]*d[5mC]*dT*d[5mC]*dA*eTeT*eT*eT) [compound 1601955] | APOE RNA (% control) Cortex | 98
